Collected TGI values appear next to each entry.
- Tested on: UACC-62 melanoma
- EXPERIMENTAL DETAILS: NCI tumour cell line growth inhibition, 48 h
Please give a number only; it is taken to be in µM.

- O=[N+]([O-])c1cc(I)cc(/C=N/NS(=O)(=O)c2ccc(F)cc2)c1O: 41.6

TGI in this record for CSc1ccc(Cc2cc(C(C)(C)C)cc(C(C)(C)C)c2O)cc1 : 29.2

---

Collected TGI values appear next to each entry.
- Tested on: MDA-MB-435
- EXPERIMENTAL DETAILS: NCI tumour cell line growth inhibition, 48 h
Where a SMILES comes first, the peptide text is derived from it.

- Cc1cc(-c2nc3ccc(F)cc3s2)ccc1NC(=O)C(N)CCCCN (configuration not stated): 5.34 µM
- Nc1nncc2n[nH]nc12: > 100 µM
- Cc1ccc(F)c2[nH]c(-c3ccccc3)cc(=O)c12: > 100 µM
- COC(=O)c1ccc(NCC2=CC(=O)C=CC2=O)cc1O: 82.9 µM
- CC(=O)NC(CS)C(=O)NC(CO)C(=O)NC(CO)C(=O)NC(Cc1c[nH]c2ccccc12)C(=O)N1CCCC1C(=O)NC(CO)C(=O)NC(Cc1c[nH]c2ccccc12)C(=O)NC(Cc1c[nH]cn1)C(=O)NC(CO)C(=O)NC(Cc1c[nH]c2ccccc12)C(=O)NCC(=O)NCC(=O)NC(C)C(=O)NC(CCC(N)=O)C(=O)NC(CCCCN)C(=O)NC(C)C(=O)NC(CCCNC(=N)N)C(=O)NC(CCCCN)C(N)=O (configuration not stated) (Ac-CSSWPSWHSWGGAQKARK-NH2; configuration not given here): > 50 µM
- CCOc1ccc(Nc2ccnc3cc(Cl)ccc23)cc1: > 100 µM

API: the following record is the query input.
TGI in this record for NS(=O)(=O)c1ccc(N=Nc2ccc(O)cc2)cc1 : > 100 µM

---

- Test system: NCI-H522 lung
- EXPERIMENTAL DETAILS: NCI tumour cell line growth inhibition, 48 h
Collected TGI values appear next to each entry.
Please give a number only; it is taken to be in µM.

- CO[C@H]1/C=C/O[C@@]2(C)Oc3c(C)c(O)c4c(O)c(c(/C=N/N5C(C)CN(Cc6ccc(C#N)cc6)CC5C)c(O)c4c3C2=O)NC(=O)/C(C)=C\C=C\[C@H](C)[C@H](O)[C@@H](C)[C@@H](O)[C@@H](C)[C@H](OC(C)=O)[C@@H]1C (stereo partly specified): 22

API: the following record is the query input.
TGI in this record for COc1cc(/C=C/C(=O)c2ccccc2O)ccc1OCCCOc1cc2c(cc1OC)C(=O)N1CCC[C@H]1C=N2 : 0.453

---

- Tested on: BT-549 breast
- EXPERIMENTAL DETAILS: NCI tumour cell line growth inhibition, 48 h
Collected TGI values appear next to each entry.
Please give a number only; it is taken to be in µM.

* CC(C)(C)c1ccc(NS(=O)(=O)c2ccc(N)cc2)cc1 | 54.8
* COc1ccc2c(c1)C(=O)c1c-2n(CCCN=[N+]=[N-])c(=O)c2cc([N+](=O)[O-])ccc12 | 1.3
* Cc1cccc2c(=O)c3c(sc12)c(NCCCN)nc1ccccc13 | 12.6
* CC(=O)OC(OC(C)=O)c1c2ccccc2cc2ccccc12 | 32.9

TGI in this record for COc1cc(/C=C2\N=C(c3ccccc3)N(c3nc4ccccc4s3)C2=O)cc(OC)c1OC : 59.4

TGI in this record for C=C(C)[C@@]12C[C@H](OC(=O)[C@H](O)[C@@H](NC(=O)c3ccccc3)c3ccccc3)C(C)=C1[C@@H](OC(C)=O)C(=O)[C@@]1(C)C([C@@H]2OC(=O)c2cc(F)cc(F)c2)C2(OC(C)=O)CO[C@@H]2C[C@@H]1O (stereo not given in full) : 2.99
